Values compiled from PubChem BioAssay (NCI).

# maps each entry to its growth
tested on: TK-10 renal; assay: NCI-60 one-dose screen, 48 h (100 = growth as untreated, 0 = no growth, -100 = all killed); settings: 10 µM unless noted
The panel holds about 83,000 compounds, 20% with a hit somewhere; the sample as a whole holds those more often. The source made the active and inactive calls. How the source made its calls: active means growth percent below 10; inactive means the rest.
assay-endpoint: growth

compound	measurement-target	assay-endpoint	assay-result
CCCn1cc2c3c(cccc31)[C@H]1C[C@@H](C)CN(C)[C@@H]1C2	TK-10 renal	growth	96.8% (inactive)
CC[C@H](C)[C@H](NC(=O)[C@H]1CCCCN1C)C(=O)N(C)[C@H](C[C@@H](OC(C)=O)c1nc(C(=O)NC23C4C5C2C2C3C4C52C(=O)OC)cs1)C(C)C (stereo partly specified)	TK-10 renal	growth	36.7% (inactive)
N#Cc1ccc(Cl)cc1	TK-10 renal	growth	60.3% (inactive)
CCN(CC)CCn1c(=O)n(C)c2ccccc21	TK-10 renal	growth	111% (inactive)
Cn1cc(C(=O)C[n+]2ccccc2)c2ccccc21	TK-10 renal	growth	115% (inactive)
COc1ccc2c(c1)C1(C)CCN(C)CC(C1)C2O (stereo unspecified)	TK-10 renal	growth	95% (inactive)

* * *

test system: KM12 colon; test: NCI-60 one-dose screen, 48 h; conditions: 10 µM unless noted
The panel holds about 83,000 compounds, 20% with a hit somewhere; the sample as a whole holds those more often. Active and inactive are the calls of the source. How the source made its calls: active means growth percent below 10; inactive means the rest.
Labels: True for active, False for inactive

molecule	qualitative-label
O=S1(=O)OCCO1	False
CC[PH+](CC)CC.O=COC1OC([S-])C(OC=O)C(OC=O)C1OC=O.[Au+] (centres undefined)	True
N#CC(NC(=O)CCl)=C(Cl)Cl	False
COC(=O)CCP(CCC(=O)OC)c1ccccc1	False

* * *

test system: MDA-MB-435 melanoma; assay: NCI-60 one-dose screen, 48 h; settings: 10 µM unless noted
This is part of a sample that, as a whole, favours compounds with a hit. Of some 83,000 tested, about 20% had one in any assay. Calls of active or inactive are those of the source. The calls were made as follows: active = growth percent below 10; inactive = the rest.
Outcome codes: active, inactive

compound	measurement-target	qualitative-label
C[C@]12CCc3sc(Nc4ccc(F)cc4F)nc3C1=CC[C@@H]1[C@@H]2CC[C@]2(C)C(=O)CC[C@@H]12	MDA-MB-435 melanoma	inactive
N#CCCc1ccccc1	MDA-MB-435 melanoma	inactive
CC[PH+](CC)CC.O=COC1OC([S-])C(OC=O)C(OC=O)C1OC=O.[Au+] (stereo unspecified)	MDA-MB-435 melanoma	active
O=C(O)c1ccccc1N(CCO)CCCl	MDA-MB-435 melanoma	inactive
O=S(=O)(c1ccc(O)cc1)c1ccccc1O	MDA-MB-435 melanoma	inactive
CC1=C2[C@H]3OC(=O)[C@@H](C)[C@@H]3CC[C@@]2(C)C=CC1=O	MDA-MB-435 melanoma	inactive
c1ccc(CCN2CCCCC2)nc1	MDA-MB-435 melanoma	inactive
C/C(=C\c1ccn(-c2ccc(N)cc2F)n1)[C@@H]1C[C@@H]2O[C@]2(C)CCC[C@H](C)[C@H](O)[C@@H](C)C(=O)C(C)(C)[C@@H](O)CC(=O)O1	MDA-MB-435 melanoma	active
Cc1ccc(N2CCN(CCC#N)CC2)cc1	MDA-MB-435 melanoma	inactive
Cc1cc(N)ccc1N	MDA-MB-435 melanoma	inactive
CO/N=C1\CC[C@]2(C)[C@H]3CC[C@]4(C)C(=O)CC[C@H]4[C@@H]3C[C@@H]3SC(N)=N[C@@]32C1	MDA-MB-435 melanoma	inactive
Oc1cc(N2CC2)c(O)cc1N1CC1	MDA-MB-435 melanoma	active
COC(=O)C1=CO[C@@H](C)[C@@H]2CN3CCc4c([nH]c5cc(OC)ccc45)[C@@H]3C[C@H]12	MDA-MB-435 melanoma	inactive
CC1=C([Te]c2ccccc2)C(=O)c2ccccc2C1=O	MDA-MB-435 melanoma	active
CN(C)c1ccc(C=C2C(=O)NC(=O)NC2=O)cc1	MDA-MB-435 melanoma	inactive
COCC1OC2OC3C(COC)OC(OC4C(COC)OC(OC5C(COC)OC(OC6C(COC)OC(OC7C(COC)OC(OC8C(COC)OC(OC1C(O)C2O)C(O)C8O)C(O)C7O)C(O)C6O)C(O)C5O)C(O)C4O)C(O)C3O (stereo unspecified) (tested in a mixture with another compound)	MDA-MB-435 melanoma	inactive
CCC1(CCSC#N)C(=O)NC(=O)NC1=O	MDA-MB-435 melanoma	inactive
O=C(O)C(F)F	MDA-MB-435 melanoma	inactive
C/C(=C\c1ccn(-c2ccc(N)c(C(F)(F)F)c2)n1)[C@@H]1C[C@@H]2O[C@]2(C)CCC[C@H](C)[C@H](O)[C@@H](C)C(=O)C(C)(C)[C@@H](O)CC(=O)O1	MDA-MB-435 melanoma	active
CC[C@H](C)[C@H](NC(=O)[C@H]1CCCCN1C)C(=O)N(C)[C@H](CCc1nc(C(=O)N[C@@H](Cc2ccccc2)C[C@H](C)C(=O)O)cs1)C(C)C	MDA-MB-435 melanoma	active
COc1cc(-c2ccc(N)c(OC)c2)ccc1N	MDA-MB-435 melanoma	inactive
CC[C@H](C)[C@H](NC(=O)CN(C)C)C(=O)N(C)[C@H](C[C@@H](OC(C)=O)c1nc(C(=O)NC23CC(C(=O)OC)(C2)C3)cs1)C(C)C	MDA-MB-435 melanoma	active
CCOC(=O)c1ccccc1C(=O)OCC	MDA-MB-435 melanoma	inactive
O=[P+](O)c1cccnc1	MDA-MB-435 melanoma	inactive
CC(C)COC(=O)Cc1ccccc1	MDA-MB-435 melanoma	inactive
NC1CN2CCC1CC2 (stereo unspecified)	MDA-MB-435 melanoma	inactive
CN1CCC2(CC1)C(C#N)C(=O)NC(=O)C2C#N (stereo unspecified)	MDA-MB-435 melanoma	inactive
Cc1cc(C(C)(C)C)ccc1O	MDA-MB-435 melanoma	inactive
CC1(C)C=Cc2c(ccc3c2[N+]([O-])=C2C3=C[C@@]34NC(=O)[C@]5(CCCN5C3=O)C[C@@H]4C2(C)C)O1	MDA-MB-435 melanoma	inactive
CC[C@@H](C)C(=O)O[C@H]1[C@H](O)[C@H]2[C@@H](CN3C[C@@H](C)CC[C@H]3[C@@]2(C)O)[C@@H]2C[C@]34O[C@]5(O)[C@@H](OC(=O)[C@@](C)(O)CC)CC[C@@]3(C)[C@@H]5[C@@H](OC(C)=O)[C@@H](OC(C)=O)[C@H]4[C@@]21O	MDA-MB-435 melanoma	inactive
O=C(Cc1ccccc1)NC(O)C(Cl)(Cl)Cl (stereo unspecified)	MDA-MB-435 melanoma	inactive
